The measurements presented in this section are drawn from the supplement of paper PMC9170038.

Reported apparent KD of MS2 coat protein values follow for various sequences
system: MS2 coat protein; assay: apparent KD of MS2 coat protein; higher = weaker reporter binding; conditions: Eterna round: R107; input ligand: arginine 13.2 mM

Query Sequence: UGUACUAUGUGAAGGAGCGCCACAUGAGGAUCACCCAUGUAAACAUGAGGAUCACCCAUGUGGCAGGUAGGUCGCACAUAGUACU [ArgBS - Double MS2 - I don't expect this to work]
Tested Target: MS2 coat protein
Value Units: nM
apparent KD of MS2 coat protein: 49.7
//
Query Sequence: UAACAUGAGGAUCACCCAUGUAUAGUCGAUACCAGCUCUGUCUAGAGCCCUUGGCAGCGACACUGGUAUCCAUGGGUGUGGAUAC [(Ms2)-(Theo)-(T)'-(M)'-(M)'']
Tested Target: MS2 coat protein
Value Units: nM
apparent KD of MS2 coat protein: 20.1
//
Query Sequence: UGUAUUGGAAACAGUACUAGUGAUCCGGUCCGAGGACCGGUACGGCCGCCACUCGAAAUUAAUAAACAUGAGGAUCACCCAUGUA [Ex Tryptophan A 11]
Tested Target: MS2 coat protein
Value Units: nM
apparent KD of MS2 coat protein: 15.7
//
Query Sequence: AGCGGCUCGAAAGAGUCGCACUCAUGUGAAGGAGCGCGCGUAAGCGCAGGUAGGUCGCACAUGAGGAUCACCCAUGUACCUUCUA [MAT - Exclusion Arginine A - Mod of Eli - D21]
Tested Target: MS2 coat protein
Value Units: nM
apparent KD of MS2 coat protein: 68.5
//
Query Sequence: CGAUAUAUACGAAGGAGCGACAUGAGGAUCACCCAUGUCUACCACGUCGAAAGACGCUCAUGUCAGGUAGGUCGCGUAUAUAUCG [Astros-Eli-mod9]
Tested Target: MS2 coat protein
Value Units: nM
apparent KD of MS2 coat protein: 56.7
//
Query Sequence: AUAACUGUAAUAAACCGCAGGCUAGUGGAAGGAGCGCGGAAUAACGCAGGUAGGUCGCCACAAACAUGAGGAUCACCCAUGUGGC [SSAA NP+V+V2 #6]
Tested Target: MS2 coat protein
Value Units: nM
apparent KD of MS2 coat protein: 16
//
Query Sequence: AACAUGAGGAUCACCCAUGUCGGGCCGGUGCGAGGACCGGUACGGCCGCCACUCGAGACAUGAGGAUCACCCAUGUAGGGCGAGA [Exclusion Tryptophan A GF22]
Tested Target: MS2 coat protein
Value Units: nM
apparent KD of MS2 coat protein: 44
//
Query Sequence: GGUACAUGAGGAUCACCCAUGUGUCAUGAUACCAGACAUGAAAAUGUCCCUUGGCAGCAUGCCUGAUGGCCGCGUUUAGCGGCCG [Liskovec]
Tested Target: MS2 coat protein
Value Units: nM
apparent KD of MS2 coat protein: 15.8
//
Query Sequence: UACAUAUGCCGAAGGAGCGCGAGAUGCAAAGCAUCAAUCCUUACAUGAGGAUCACCCAUGUCGCAGGUAGGUCGCGGCAUAUGUU [ArgBX 2]
Tested Target: MS2 coat protein
Value Units: nM
apparent KD of MS2 coat protein: 26.8
//
Query Sequence: UACAUGAGGAUCACCCAUGUAUGAAUGGAUACCAGCGACAAUGGGCGCCCUUGGCAGCUAGUGGAUGAAGGGUGGGUACAAUACU [Exclusion Theophyline A GF4]
Tested Target: MS2 coat protein
Value Units: nM
apparent KD of MS2 coat protein: 11.4
//
Query Sequence: AAUCUGUCGGGUGAUACCAGCCUCGGCGCAUCUCACGCUGAACAUGAGGAUCACCCAUGUGGCCCUUGGCAGCACAUGACAAAUC [Tivece]
Tested Target: MS2 coat protein
Value Units: nM
apparent KD of MS2 coat protein: 202
//
Query Sequence: GCAUCCUAGUCGGCCGCCACUGCAUGUAGGCAGUGCUGCUACAAACAUGAGGAUCACCCAUGUAGCAGGACCGGGACUAGGAUGC [(Trp1)-(MT2)''-(T1)'-(MT2)'-(Ms2)-(Trp2)_Design2]
Tested Target: MS2 coat protein
Value Units: nM
apparent KD of MS2 coat protein: 13
